Reference source: patent US8895526B2

Tested on: tet-on competent MLL/AF9+Nras AML
Assay: Pooled negative selection RNAi screening (deep sequencing)
Type: cell-based, mouse
Details: deep sequencing reads, On Dox compared to T0
Parameter: Fold depletion in AML. Scope: all listed entries.
measurementLabel: Fold depletion in AML (Fold)

molecule="Mn1.5760: neutral control shRNA, SEQ ID NO: 207 (nucleic acid) TGCTGTTGACAGTGAGCGCTTGGTTTAGCAGGAAGAATAATAGTGAAGCCACAGATGTATTATTCTTCCTGCTAAACCAAATGCCTACTGCCTCGGA" unitsymbol=Fold assayresult=0.38
molecule="Htatip2.575: shRNA, SEQ ID NO: 133 (nucleic acid) TGCTGTTGACAGTGAGCGACAGCAGTTTCTTATACCTACATAGTGAAGCCACAGATGTATGTAGGTATAAGAAACTGCTGGTGCCTACTGCCTCGGA" unitsymbol=Fold assayresult=15.74
molecule="Acpp.818: shRNA, SEQ ID NO: 87 (nucleic acid) TGCTGTTGACAGTGAGCGAAAAGAGAAATCTCGACTCCAATAGTGAAGCCACAGATGTATTGGAGTCGAGATTTCTCTTTCTGCCTACTGCCTCGGA" unitsymbol=Fold assayresult=9.00
molecule="Tnfsf12.1204: shRNA, SEQ ID NO: 187 (nucleic acid) TGCTGTTGACAGTGAGCGCAATGGATATTAAAGAGAATAATAGTGAAGCCACAGATGTATTATTCTCTTTAATATCCATTTTGCCTACTGCCTCGGA" unitsymbol=Fold assayresult=36.03
molecule="Dsp.6155: shRNA, SEQ ID NO: 114 (nucleic acid) TGCTGTTGACAGTGAGCGCCAGGAAGTTCTTCGATCAATATAGTGAAGCCACAGATGTATATTGATCGAAGAACTTCCTGTTGCCTACTGCCTCGGA" unitsymbol=Fold assayresult=242.96
molecule="BRAF.5053: neutral control shRNA, SEQ ID NO: 193 (nucleic acid) TGCTGTTGACAGTGAGCGCTAGGGTGATGTCTCACTTGAATAGTGAAGCCACAGATGTATTCAAGTGAGACATCACCCTATTGCCTACTGCCTCGGA" unitsymbol=Fold assayresult=0.66
molecule="Ap1s2.2744: shRNA, SEQ ID NO: 90 (nucleic acid) TGCTGTTGACAGTGAGCGACAGGAGCAAGATGAGTTACTATAGTGAAGCCACAGATGTATAGTAACTCATCTTGCTCCTGCTGCCTACTGCCTCGGA" unitsymbol=Fold assayresult=57.84
molecule="Klrb1b.845: shRNA, SEQ ID NO: 136 (nucleic acid) TGCTGTTGACAGTGAGCGCCAGATTCTTCATTGTATAAATTAGTGAAGCCACAGATGTAATTTATACAATGAAGAATCTGTTGCCTACTGCCTCGGA" unitsymbol=Fold assayresult=9.74
molecule="Vnn3.345: shRNA, SEQ ID NO: 189 (nucleic acid) TGCTGTTGACAGTGAGCGAACGCCAGAAGATGGAATCTATTAGTGAAGCCACAGATGTAATAGATTCCATCTTCTGGCGTCTGCCTACTGCCTCGGA" unitsymbol=Fold assayresult=10.19
